All values here come from ChEMBL document CHEMBL3044597.

biological target: Beta-lactamase (Pseudomonas aeruginosa, UniProt Q79MP6); assay: Inhibition of Pseudomonas aeruginosa IMP1 metallo-beta-lactamase
Sequence (Q79MP6 whole entry): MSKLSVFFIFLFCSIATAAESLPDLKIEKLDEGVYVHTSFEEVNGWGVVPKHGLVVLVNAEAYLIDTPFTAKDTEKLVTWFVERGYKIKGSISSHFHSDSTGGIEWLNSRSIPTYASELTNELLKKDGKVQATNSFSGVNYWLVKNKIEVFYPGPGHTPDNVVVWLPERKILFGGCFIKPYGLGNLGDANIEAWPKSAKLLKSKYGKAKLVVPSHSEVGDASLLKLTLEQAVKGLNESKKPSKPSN
pIC50: −log10 of the molar value.
Outcome label depends on pIC50 relative to 5: at/above gives met, below gives not met.

See these solved cases before continuing.
structure_as_smiles: C[C@@H](Cc1ccc(-c2ccccc2)cc1)SC(=O)[C@@H](C)NC(=O)Cc1ccc(O)cc1
group: met
//
structure_as_smiles: C[C@@H](Cc1ccc(-c2ccccc2)cc1)SC(=O)[C@@H](C)NC(=O)c1ccc2ccccc2c1
group: not met
//
structure_as_smiles: C=CCOC(=O)N[C@H](C)C(=O)S[C@@H](C)Cc1ccc(-c2ccccc2)cc1
group: met

input: In plain terms: is recorded pIC50 at least 5 for `CC(=O)N[C@H](C)C(=O)S[C@@H](C)Cc1ccc(-c2ccccc2)cc1` ?
output: not met

input: Check the entry `C[C@@H](Cc1ccc(-c2ccccc2)cc1)SC(=O)[C@@H](C)NC(=O)c1cccc(N(C)C)c1` : does pIC50 equal or exceed 5?
output: not met

input: Quick check, pIC50 >= 5? `CC(=O)N[C@H](C)C(=O)S[C@@H](C)Cc1ccc2oc3ccccc3c2c1`
output: met

input: Is pIC50 for `C[C@@H](Cc1ccc(-c2ccccc2)cc1)SC(=O)[C@@H](C)NC(=O)COc1ccccc1` at or above 5?
output: met

input: Kindly determine if pIC50 recorded for `O=C(O)[C@@H](Cc1ccccc1)[C@H](Cc1ccc2c(c1)OCO2)C(=O)O` is above or exactly 5.
output: met

====

// reported log10(IC50) per item
biological target: Beta-lactamase (Pseudomonas aeruginosa, UniProt Q79MP6); test: Inhibition of Pseudomonas aeruginosa IMP1 metallo-beta-lactamase
Record value = log10 of IC50 given in µM.

# example entries with known answers
structure_as_smiles: C[C@@H](Cc1ccc(-c2ccccc2)cc1)SC(=O)[C@@H](C)NC(=O)Cc1ccccc1Cc1ccccc1
log10(IC50): 1.38
//
structure_as_smiles: C[C@@H](Cc1ccc(-c2ccccc2)cc1)SC(=O)[C@@H](C)NC(=O)CCCC(=O)O
log10(IC50): 1.96
//
structure_as_smiles: CCCCC(=O)N[C@H](C)C(=O)S[C@@H](C)Cc1ccc(-c2ccccc2)cc1
log10(IC50): 0.68
//
structure_as_smiles: C[C@@H](Cc1ccc(-c2ccccc2)cc1)SC(=O)[C@@H](C)NC(=O)CNC(=O)c1ccccc1
log10(IC50): 1.70
//
structure_as_smiles: C[C@@H](Cc1ccc(-c2ccccc2)cc1)SC(=O)[C@@H](C)NC(=O)/C=C/c1ccccc1
log10(IC50): 1.04

log10(IC50) recorded for this compound, `O=C(S[C@@H](Cc1ccccc1)C(=O)O)c1ccccc1` , is 0.40

response.value for `O=C(S[C@H](Cc1ccc2oc3ccccc3c2c1)C(=O)O)c1ccccc1` (field: log10(IC50)) = -2.89

Looking up `C/C=C/C(=O)N[C@H](C)C(=O)S[C@@H](C)Cc1ccc(-c2ccccc2)cc1` , I see its log10(IC50) listed as 1.52

Entry `CCCCCC(=O)N[C@H](C)C(=O)S[C@@H](C)Cc1ccc(-c2ccccc2)cc1` — recorded log10(IC50) = 1.11

log10(IC50) for `COc1ccc(C(=O)N[C@H](C)C(=O)S[C@@H](C)Cc2ccc(-c3ccccc3)cc2)cc1` is 1.46

====

molecular target: Beta-lactamase (Pseudomonas aeruginosa, UniProt Q79MP6); assay: Inhibition of Pseudomonas aeruginosa IMP1 metallo-beta-lactamase
Catalogue of compounds with associated pIC50
By convention, pIC50 is the negative base-10 log of a molar concentration.

Summary for this compound, `O=C(O)[C@H](S)Cc1ccc2oc3ccccc3c2c1` : pIC50 is 7.64

====

biological target: Beta-lactamase (Pseudomonas aeruginosa, UniProt Q79MP6); assay: Inhibition of Pseudomonas aeruginosa IMP1 metallo-beta-lactamase
Each record here notes measured IC50.
Supply the numeric figure in nM, leaving out any unit text.

Before answering, review these 5 worked examples.
structure_as_smiles: C[C@@H](Cc1ccc2oc3ccccc3c2c1)SC(=O)[C@@H](C)NC(=O)c1ccccc1
IC50 [nM]: 1500
//
structure_as_smiles: CC(=O)S[C@H](Cc1ccccc1)C(=O)O
IC50 [nM]: 12000
//
structure_as_smiles: O=C(O)[C@@H](S)Cc1ccc(-c2ccccc2)cc1
IC50 [nM]: 1200
//
structure_as_smiles: O=C(S[C@H](Cc1ccccc1)C(=O)O)c1ccccc1
IC50 [nM]: 64
//
structure_as_smiles: COc1cccc(C(=O)N[C@H](C)C(=O)S[C@@H](C)Cc2ccc(-c3ccccc3)cc2)c1
IC50 [nM]: 38000

Attention now shifts to the item below.
Measured IC50, `C[C@@H](Cc1ccc(-c2ccccc2)cc1)SC(=O)[C@@H](C)NC(=O)CCC(=O)c1ccccc1` : 250

====

molecular target: Beta-lactamase (Pseudomonas aeruginosa, UniProt Q79MP6); experiment: Inhibition of Pseudomonas aeruginosa IMP1 metallo-beta-lactamase
measured_parameter: pIC50
Schema: pIC50 number; meaning minus log10 of the concentration expressed in molar units.

Solved entries:
structure_as_smiles: COc1cc(OC)c(C(=O)N[C@H](C)C(=O)S[C@@H](C)Cc2ccc(-c3ccccc3)cc2)c(OC)c1
pIC50: 4.34

structure_as_smiles: O=C(O)[C@@H](Cc1ccc2c(c1)OCO2)[C@H](Cc1ccc2c(c1)OCO2)C(=O)O
pIC50: 8.05

Input `C[C@@H](Cc1ccccc1)SC(=O)[C@@H](C)NC(=O)c1ccccc1` . Output pIC50: 4.70
